Target: PDE6AB (Homo sapiens, UniProt P16499+P35913)
Construct: Scottish Biomedical (contract laboratory)
Sequence (P16499 whole entry): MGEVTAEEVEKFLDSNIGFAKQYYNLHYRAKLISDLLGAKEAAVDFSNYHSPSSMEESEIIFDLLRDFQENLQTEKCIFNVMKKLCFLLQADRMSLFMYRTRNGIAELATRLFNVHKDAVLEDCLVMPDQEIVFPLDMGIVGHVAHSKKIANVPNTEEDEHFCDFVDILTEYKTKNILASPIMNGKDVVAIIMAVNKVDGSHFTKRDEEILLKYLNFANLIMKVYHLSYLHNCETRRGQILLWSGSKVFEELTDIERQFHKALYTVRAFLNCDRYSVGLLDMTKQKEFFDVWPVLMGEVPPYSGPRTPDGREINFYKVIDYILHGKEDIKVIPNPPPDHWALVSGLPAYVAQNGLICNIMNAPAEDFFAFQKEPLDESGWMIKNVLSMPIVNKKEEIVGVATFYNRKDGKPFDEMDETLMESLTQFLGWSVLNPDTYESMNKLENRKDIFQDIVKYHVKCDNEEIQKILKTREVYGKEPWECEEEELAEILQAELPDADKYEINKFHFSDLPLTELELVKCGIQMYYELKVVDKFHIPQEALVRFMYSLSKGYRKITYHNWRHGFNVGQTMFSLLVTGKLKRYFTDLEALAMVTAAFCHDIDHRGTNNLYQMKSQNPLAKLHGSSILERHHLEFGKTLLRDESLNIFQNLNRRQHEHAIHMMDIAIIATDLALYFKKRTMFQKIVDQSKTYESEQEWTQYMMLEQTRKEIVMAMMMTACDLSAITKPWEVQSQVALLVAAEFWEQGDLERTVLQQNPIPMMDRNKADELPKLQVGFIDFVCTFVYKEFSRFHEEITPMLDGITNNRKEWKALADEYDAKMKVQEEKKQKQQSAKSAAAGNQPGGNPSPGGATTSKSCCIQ
Sequence (P35913 whole entry): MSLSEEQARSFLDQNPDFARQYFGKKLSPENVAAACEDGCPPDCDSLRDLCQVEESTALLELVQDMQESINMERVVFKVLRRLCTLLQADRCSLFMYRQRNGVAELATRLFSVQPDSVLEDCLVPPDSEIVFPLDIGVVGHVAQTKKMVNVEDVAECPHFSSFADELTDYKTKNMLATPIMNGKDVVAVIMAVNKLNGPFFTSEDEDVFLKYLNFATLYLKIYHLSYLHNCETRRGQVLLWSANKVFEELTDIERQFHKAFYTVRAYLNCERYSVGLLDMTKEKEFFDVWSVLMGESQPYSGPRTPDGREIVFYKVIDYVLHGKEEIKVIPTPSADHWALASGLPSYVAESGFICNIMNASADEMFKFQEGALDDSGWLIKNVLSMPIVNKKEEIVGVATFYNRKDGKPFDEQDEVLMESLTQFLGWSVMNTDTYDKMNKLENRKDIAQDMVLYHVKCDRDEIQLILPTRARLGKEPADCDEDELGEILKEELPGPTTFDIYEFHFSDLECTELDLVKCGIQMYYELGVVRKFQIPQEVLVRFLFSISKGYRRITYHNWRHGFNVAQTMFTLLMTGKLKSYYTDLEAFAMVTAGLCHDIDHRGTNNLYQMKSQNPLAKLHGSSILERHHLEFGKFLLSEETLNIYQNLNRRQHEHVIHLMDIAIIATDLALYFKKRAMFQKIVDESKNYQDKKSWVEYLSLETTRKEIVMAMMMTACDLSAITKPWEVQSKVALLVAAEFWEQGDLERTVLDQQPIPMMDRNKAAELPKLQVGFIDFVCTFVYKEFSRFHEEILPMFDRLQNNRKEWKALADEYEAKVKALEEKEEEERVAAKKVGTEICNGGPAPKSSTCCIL
Experiment: IMAP PDE activity assay (Scottish Biomedical)
Conditions: NI, no inhibition noted at concentrations tested (up to 10 µM at Cerep and up to 100 µM at Scottish Biomedical)
pIC50: −log10 of the molar value.
Reported Metric: pIC50

Lookup: Report pIC50, nothing else, for this molecule: `CN1C(=O)c2nc(Cc3ccc(C(F)(F)F)cc3)[nH]c2N2C1=N[C@H]1CCC[C@H]12`
Found: < 4.00

====

Assay: Pharmacokinetic analysis in mice
Type: in vivo, mouse
Details: male, C57BL/6NCRL, mouse, 10 mg/kg; Brain; PO 10.0 (mg eq./kg); read-out: Observed Cmax
Reported Metric: Cmax (nM)
Numbers only; they are read as nM.

Lookup: Report Cmax, nothing else, for this molecule: `CN1C(=O)c2nc(Cc3ccc(C(F)(F)F)cc3)[nH]c2N2C1=N[C@H]1CCC[C@H]12`
Found: 475
